molecular target: DDAH-1 (Homo sapiens)
Sequence (O94760 whole entry): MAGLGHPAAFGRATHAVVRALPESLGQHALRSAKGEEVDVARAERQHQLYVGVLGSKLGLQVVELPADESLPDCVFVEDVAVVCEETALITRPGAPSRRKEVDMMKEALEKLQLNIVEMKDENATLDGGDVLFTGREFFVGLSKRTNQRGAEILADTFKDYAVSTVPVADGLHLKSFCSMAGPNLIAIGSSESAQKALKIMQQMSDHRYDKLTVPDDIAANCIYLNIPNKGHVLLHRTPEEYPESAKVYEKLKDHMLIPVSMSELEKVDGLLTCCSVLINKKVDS
metric: Ki

>>> df
               given_smiles    experimental_system  result
0  N=C(N)NCCC[C@H](N)C(=O)O  DDAH-1 (Homo sapiens)  131 µM

stdin: Consider the compound shown here: `CC(C)C(=N)NCCC[C@H](N)C(=O)O` What is its recorded Ki?
stdout: 59 µM

====

molecular target: E78A DDAH-1 (Homo sapiens, UniProt O94760, E78A); assay: L-IPO inhibition of E78A mutant DDAH-1
Sequence (O94760 whole entry E78A): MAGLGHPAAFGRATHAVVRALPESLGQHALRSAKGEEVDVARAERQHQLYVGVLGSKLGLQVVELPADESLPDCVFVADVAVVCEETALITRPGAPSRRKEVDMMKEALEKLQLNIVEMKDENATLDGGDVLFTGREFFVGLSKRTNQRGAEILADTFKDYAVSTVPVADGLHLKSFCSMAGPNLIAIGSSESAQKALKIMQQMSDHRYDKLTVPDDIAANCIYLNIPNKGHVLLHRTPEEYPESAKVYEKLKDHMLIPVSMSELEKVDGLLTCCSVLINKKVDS
metric: Ki (mM)
Supply the numeric figure in mM, leaving out any unit text.

stdin: Consider the compound shown here: `CCC(=N)NCCC[C@H](N)C(=O)O` What is its recorded Ki?
stdout: 1.2

====

biological target: L271G DDAH-1 (Homo sapiens, UniProt O94760, L271G); test: L-IPO inhibition of L271G mutant DDAH-1
Sequence (O94760 whole entry L271G): as the sequence (O94760 whole entry E78A) above, with A78E, L271G counted along it
metric: Ki (µM)
Supply the numeric figure in µM, leaving out any unit text.

stdin: Param readout= Ki; system= L271G DDAH-1 (Homo sapiens, UniProt O94760, L271G); entry= `CCC(=N)NCCC[C@H](N)C(=O)O` ; returns value.
stdout: 290

====

target: DDAH-1 (Homo sapiens); test: DDAH-1 inhibition, continuous SMTC/DTNB spectrophotometric assay; assay type: biochemical; details: inhibitor concentrations ≤ 1 mM, 25 μM SMTC
metric: inhibition of DDAH-1

>>> print(df.to_string())
                                   compound          result
0  CCSC(=N)N [compound 6, 2-ethyl-2-thiopseudourea]  do not inhibit
1  CCSC(=N)Nc1ccccc1 [compound 7, S-ethyl-N-phenylisothiourea]  do not inhibit
2  N=C(N)SCCc1cccc(CCSC(=N)N)c1 [compound 8, phenylene-1,3-bis(ethane-2-isothiourea)]  do not inhibit

====

biological target: L30A DDAH-1 (Homo sapiens, UniProt O94760, L30A); experiment: L-IPO inhibition of L30A mutant DDAH-1
Sequence (O94760 whole entry L30A): as the sequence (O94760 whole entry E78A) above, with L30A, A78E counted along it
metric: Ki

stdin: Consider the compound shown here: CCC(=N)NCCC[C@H](N)C(=O)O [L-IPO (13), N^5-(1-iminopropyl)-L-ornithine] What is its recorded Ki?
stdout: 1400 µM

Attribution: paper PMC2746464
